# System: Myeloid bone marrow cells
# Assay text: Bone marrow cell growth inhibition, myeloid
# Type: cell-based
Experimental endpoint: IC50 (µg/mL)
Record the value in µg/mL, omitting the unit from your answer.

CC(=O)NC[C@H]1CN(c2ccc(N3CCOCC3)c(F)c2)C(=O)O1 [ZYVOX, linezolid, reference compound]: 20

Request: Give the reported value of IC50 for this record: COc1ccc(C(=O)CN2C[C@@H](COS(=O)(=O)c3ccc(Cl)c4nonc34)OC2=O)cc1 [Compound 207]
Response: 0.8

Request: Look up and state reported IC50 for CCN1C[C@@H](COS(=O)(=O)c2ccc([N+](=O)[O-])cc2)OC1=O [Compound 1192]
Response: 5

* * *

# System: Staphylococcus aureus (ATCC 43300)
# Assay text: Broth microdilution MIC, MR SA ATCC 43300
# Format: cell-based
# Test parameters: ATCC43300, methicillin resistant SA, read-out: MIC90-100 MR SA ATCC 43300
Experimental endpoint: MIC90 (µg/mL)
Give the quantity in µg/mL, number only.

O=C1O[C@@H](COSc2ccc([N+](=O)[O-])cc2)CN1c1ccc([N+](=O)[O-])cc1 [Compound 1808]: 8

Please find the next compound below.
Request: Output MIC90 of O=C(OC[C@H]1CN(c2ccc([N+](=O)[O-])cc2)C(=O)O1)Oc1ccc([N+](=O)[O-])cc1 [Compound 1809]
Response: 4

* * *

Measured MIC90 by item
# Test system: Staphylococcus aureus NRS102 (Reynolds)
# Assay text: Broth microdilution MIC, Pen. R SA Reynolds
# Assay type: cell-based
# Test parameters: strain Reynolds, read-out: MIC90-100 Pen. R SA Reynolds
Numbers only here, please. The scale is µg/mL.

CN1C[C@@H](CNSc2ccc([N+](=O)[O-])cc2)OC1=O: 3
CC(C)N1C[C@@H](CNSc2ccc([N+](=O)[O-])cc2)OC1=O: 32

Request: For the molecule O=C1O[C@@H](COSc2ccc([N+](=O)[O-])cc2)CN1c1ccc([N+](=O)[O-])cc1 , give its reported MIC90.
Response: 16

Request: Respond only with MIC90 recorded for CCN1C[C@@H](COS(=O)(=O)c2ccc([N+](=O)[O-])cc2)OC1=O
Response: 8

Request: Consider the molecule O=C(OC[C@H]1CN(c2ccc([N+](=O)[O-])cc2)C(=O)O1)Oc1ccc([N+](=O)[O-])cc1 and give its recorded MIC90.
Response: 8

Request: Tell me its MIC90 given CC(C)N1C[C@H](CNSc2ccc([N+](=O)[O-])cc2)OC1=O as the entry.
Response: 32

Request: Please list MIC90 recorded for the molecule O=C1O[C@H](CNSc2ccc([N+](=O)[O-])cc2)CN1c1ccc([N+](=O)[O-])cc1
Response: 8
